System: M14 melanoma
Assay: NCI tumour cell line growth inhibition, 48 h
Each item that follows carries a reported TGI.
QUANTITY MEASURED: TGI

1) Clc1cccc(C2SCc3nc4ccccc4n32)c1Cl (stereo unspecified)	30.5 µM
2) CC(CN(C)C)C(O)(c1ccccc1)c1ccccc1 (stereo unspecified)	> 100 µM
3) O=C(O)C1(Cc2ccc3c(c2)CCC3)Cc2cc3c(cc2C1)CCC3	> 100 µM
4) ClCc1ccc(Cn2cnc3ncnc(Cl)c32)cc1	13 µM
5) Cc1nc2ccccc2n1CCc1nc2ccccc2[nH]1	> 100 µM
6) COc1ccc(/C(Cl)=C(\C=O)c2ccc(Cl)cc2)cc1	> 100 µM

----------
TGI values for the compounds below.
Test system: MCF7 breast
Experiment: NCI tumour cell line growth inhibition, 48 h
QUANTITY MEASURED: TGI

1. CCCCC[C@@H]1OC(=O)[C@@]2(CC3c4ccccc4C2c2ccccc23)[C@H]1C(=O)OC	> 100 µM
2. Oc1cc(Br)cc2cc(Br)cnc12	> 100 µM
3. Cc1cccc(-c2cc(=O)c3c(C)ccnc3[nH]2)c1	> 42.2 µM
4. CN1C(C(=O)Nc2ccccn2)=C(O)c2ccccc2S1(=O)=O	> 100 µM
5. COc1ccc2c3c([nH]c2c1)[C@H]1C[C@H]2[C@H](C[C@@H](O)[C@H](OC)[C@H]2C(=O)O)CN1CC3	> 100 µM
6. CCOC(=O)c1cc2cc([N+](=O)[O-])ccc2oc1=O	> 100 µM
7. CC(C)=CCC/C(C)=C/CCC1(C)C2COC(=O)C21 (configuration not stated)	> 100 µM
8. CCc1ccc(/C=C2/SC(=S)NC2=O)cc1	> 85.5 µM
9. O=C(N/N=C\c1cc(Cl)ccc1O)N/N=C/c1cc(Cl)ccc1O	> 100 µM
10. O=[N+]([O-])c1ccc(-c2nc3ccccc3o2)cc1	> 100 µM
11. COC(=O)[C@]12CCC(=O)N1[C@H](C(=O)O)Cc1c2[nH]c2ccccc12	> 100 µM
12. O=C(NC(Cc1c[nH]c2ccccc12)C(=O)O)/C(=C/c1ccccc1)NC(=O)c1ccccc1 (configuration not stated)	> 100 µM
13. CC(CN(C)C)C(O)(c1ccccc1)c1ccccc1 (configuration not stated)	> 100 µM
14. O=c1[nH]nc(Cc2ccc([N+](=O)[O-])cc2)[nH]1	> 100 µM
15. COc1cc(Nc2ncc(-c3ccccc3)o2)cc(OC)c1OC	> 25 µM
16. CCn1c2ccccc2c2cc(NC(=O)c3c(C)[nH]c(=O)[nH]c3=S)ccc21	> 100 µM
17. O=C1C(=O)C(CCCO)(CCCO)CCCCCCCCC1(CCCO)CCCO	> 100 µM

----------
Tested on: UACC-257 melanoma
Test: NCI tumour cell line growth inhibition, 48 h
Reported TGI values for a set of compounds
QUANTITY MEASURED: TGI

1. O=C(NC(Cc1c[nH]c2ccccc12)C(=O)O)/C(=C/c1ccccc1)NC(=O)c1ccccc1 (stereo unspecified)	> 100 µM
2. COc1cc(C=NCC(=O)CSC(c2ccccc2)c2ccccc2)cc(OC)c1OC	60.5 µM
3. CCOC(=O)C1C2C1C1C(C(=O)OCC)C21 (stereo unspecified)	> 100 µM
4. COc1ccc(C2CC(C)=Nc3c([nH]c(=S)[nH]c3=O)N2)cc1 (stereo unspecified)	33.9 µM
5. O=C(O)c1oc2ccc([N+](=O)[O-])c3c2c1CCC3	> 100 µM
6. CN1C=CN(Cc2ccc(-c3ccccn3)nc2)[CH-]1.CN1C=CN(Cc2ccc(-c3ccccn3)nc2)[CH-]1.[Au+3]	7.47 µM
7. Cc1ccc(N=Nc2cc(=O)[nH]c(=O)[nH]2)cc1C	28.7 µM
8. Cn1c(=O)c2[nH]cnc2n(C)c1=O	> 100 µM
9. C/C(=N\NC(=S)Nc1ccc([N+](=O)[O-])cc1S(=O)(=O)O)c1ccccn1	> 100 µM
10. CC(C)c1cc2c(O)c(c1)Cc1cc(C(C)C)cc(c1O)Cc1cc(C(C)C)cc(c1O)Cc1cc(C(C)C)cc(c1O)Cc1cc(C(C)C)cc(c1O)Cc1cc(C(C)C)cc(c1O)C2	> 100 µM
11. O=C(NNc1ccc([N+](=O)[O-])cc1)C1OC(CO)C(O)C1O (stereo unspecified)	> 100 µM
12. C#Cc1ccccc1C(=O)OC	> 100 µM
13. O=C1CCCC2COc3ccc(O)c1c32 (stereo unspecified)	> 100 µM
14. CCCCN=C(OC1C=CCCC1)SC (stereo unspecified)	> 100 µM
15. NC(Cc1ccccc1)C(=O)O (stereo unspecified)	> 100 µM
16. C[N+](C)(C)c1nc(N)nc2c1ncn2C1OC(CO)C(O)C1O (stereo unspecified)	> 100 µM

----------
Test system: HCT-15 colon
Test: NCI tumour cell line growth inhibition, 48 h
QUANTITY MEASURED: TGI

1. O=[N+]([O-])c1ccc(-c2nc3ccccc3o2)cc1	> 100 µM
2. CCn1c2ccccc2c2cc(NC(=O)c3c(C)[nH]c(=O)[nH]c3=S)ccc21	> 100 µM
3. Cn1c(=O)c2[nH]cnc2n(C)c1=O	> 100 µM
4. CCOC(=O)Cn1c(C)nc2nn(Cc3ccccc3)cc2c1=O	> 100 µM
5. CC1=C(C(=O)OC(C)C)C(c2cccc([N+](=O)[O-])c2)C(C(=O)OC(CO[N+](=O)[O-])CO[N+](=O)[O-])=C(C)N1 (stereo unspecified)	19 µM
6. COc1ccc(N2C(=O)CSC2c2cc(OC)c(OC)c(OC)c2)cc1 (stereo unspecified)	44.4 µM
7. Cc1cn(C2CC(O)C(Cn3cc(Cn4nc(Br)c(=O)[nH]c4=O)nn3)O2)c(=O)[nH]c1=O (stereo unspecified)	> 100 µM
8. COC(=O)[C@]12CCC(=O)N1[C@H](C(=O)O)Cc1c2[nH]c2ccccc12	> 100 µM
9. N#Cc1nc(Cc2cccs2)oc1N	> 100 µM
10. Cc1cccc(-c2cc(=O)c3c(C)ccnc3[nH]2)c1	> 100 µM
11. Oc1cc(Br)cc2cc(Br)cnc12	> 100 µM
12. C=CC(=O)N1C/C(=C\c2ccc(F)cc2)C(=O)/C(=C/c2ccc(F)cc2)C1	0.433 µM
13. N#CC(C#N)=C/C=C/c1cccc([N+](=O)[O-])c1	3.98 µM
14. COS(=O)CCOC(=O)c1ccccc1SSc1ccccc1C(=O)OCCS(=O)OC (stereo unspecified)	85.9 µM
15. CCSc1nn(-c2c3ccccc3nc3ccccc23)c(=S)s1	> 100 µM
16. O=C(N/N=C\c1cc(Cl)ccc1O)N/N=C/c1cc(Cl)ccc1O	> 100 µM
17. C=C1C(=O)O[C@H]2[C@H](OC(C)=O)[C@@H](C)CCC/C(C)=C/CC[C@]3(CO3)[C@H](O)C[C@@H]12	3.76 µM
18. CCOC(=O)c1c(C)n(CCN2CCN(C)CC2)c2ccc(OC)cc12	95.8 µM
19. COc1ccc(/C(Cl)=C(\C=O)c2ccc(Cl)cc2)cc1	> 100 µM
20. COc1ccc(CNc2cnc3cc(N)ccc3n2)cc1OC	> 100 µM
21. NC(=O)CN1CCN(c2nc(N3CCCC3)c3nc(Cl)c(NCc4ccccc4)nc3n2)CC1	17.3 µM
22. C=C1C(=O)OC2C1CC1OC2C(C)CCC/C(C)=C\CCC1(C)O (stereo unspecified)	63.6 µM
23. CC(C)S(=O)(=O)n1c(N)nc2ccc(/C(=N/O)c3ccccc3)cc21	79.3 µM
24. CC(=O)OCC1OC(O[C@@H]2C[C@H]3C(C)(C)[C@H](OC(C)=O)CC[C@]3(C)[C@H]3CC[C@@H]4[C@]5(CC[C@@]4(C)[C@@]32C)O[C@@H]([C@H](O)C(C)(C)O)C[C@@H]5C)C(O)C(O)C1O (stereo partly specified)	5.94 µM
25. CCCCCCCCCCCOCCC1C(C(C)OCCN2CCCC2)OC2OC(C)(C)OC21 (stereo unspecified)	4.35 µM
26. Cc1cc(Br)cc(C)c1NC(=O)C(=O)C(C(=O)c1ccc(Cl)c(Cl)c1)C1OC(=O)c2ccccc21 (stereo unspecified)	> 100 µM
27. CC(=O)Nc1[nH]c(=O)[nH]c(=O)c1N(C(C)=O)C(C)=O	> 100 µM
28. Fc1ccc(-c2c(-c3ccncc3)n(CCN3CCOCC3)c3cccnc23)cc1	> 25 µM
29. CNc1ccc([N+](=O)[O-])cc1C(=O)N1CCC[C@H]1CO	> 100 µM
30. COc1ccc2c3c([nH]c2c1)[C@H]1C[C@H]2[C@H](C[C@@H](O)[C@H](OC)[C@H]2C(=O)O)CN1CC3	> 100 µM
31. Cc1ccc(NC(=O)CCC(=O)C(C#N)c2ccc(Cl)cc2)cc1C (stereo unspecified)	> 100 µM
32. Cc1ccc2c(=O)c3c(O)c4c(cc3n(C)c2c1)OC(C)(C)C=C4	> 10 µM
33. C[N+](C)(C)c1nc(N)nc2c1ncn2C1OC(CO)C(O)C1O (stereo unspecified)	> 100 µM
34. O=C(/C=C/c1cccs1)Nc1ncc(Cc2ccccc2F)s1	> 100 µM
35. Cn1cnc([N+](=O)[O-])c1Sc1nncc2[nH]cnc12	> 100 µM
36. C=C1C(=O)O[C@H]2[C@@H](O)[C@H](C)CCC/C(C)=C/CC[C@@]3(C)O[C@@H]3C[C@@H]12	4.68 µM
